The measured values listed here are drawn from ChEMBL document CHEMBL4145684.

protocol summary: AUC in mouse at 10 mg/kg, po
Type: ADME, organism-based
details: in vivo
attribute measured: AUC (ng·h/mL)
Number in ng·h/mL, nothing else.

1) CC1=C(c2ccccc2)C(c2ccc(OC[C@H](C)N3CC[C@@H](C)C3)cc2)Oc2ccc(O)cc21 (stereo not given in full); 1000
2) CC1=C(c2ccc(O)cc2)C(c2ccc(OC[C@H](C)N3CC[C@@H](C)C3)cc2)Oc2ccc(O)cc21 (stereo not given in full); 460
3) CC1=C(c2ccc(O)cc2)[C@H](c2ccc(OCCN3CCCCC3)cc2)Oc2cc(O)ccc21; 90
4) CC1=C(c2ccc(O)cc2)C(c2ccc(OC[C@H](C)N3CC[C@@H](C)C3)cc2)Oc2cc(O)ccc21 (stereo not given in full); 120

I'd like to know its AUC. The molecule in question is CC1=C(c2ccc(F)cc2)C(c2ccc(OC[C@H](C)N3CC[C@@H](C)C3)cc2)Oc2ccc(O)cc21 (stereo not given in full) 2000

---

experimental system: Estrogen receptor (Homo sapiens, UniProt P03372)
protocol summary: Induction of ERalpha degradation in human MCF7 cells in phenol red free RPMI medium containing 5% charcoal dextran-treated FBS incubated for 4 hrs by SP1 and anti-ER rabbit monocolnal antibody based in-cell Western assay
// reported pIC50 per item
Keep in mind that pIC50 stands for -log10 of concentration in molar terms.

1. CC1=C(c2cccc(O)c2)C(c2ccc(OCCN3CCC3)cc2)Oc2ccc(O)cc21 (stereo unspecified); 9.52
2. CC1=C(c2ccccc2)C(c2ccc(OC[C@H](C)N3CC[C@@H](C)C3)cc2)Oc2ccc(O)cc21 (stereo partly specified); 9.40
3. CC1=C(c2cccc(O)c2)C(c2ccc(OC[C@@H](C)N3CC[C@@H](C)C3)cc2)Oc2ccc(O)cc21 (stereo partly specified); 9.52
4. CC1=C(c2cccc(O)c2)[C@H](c2ccc(OC[C@H](C)N3CC[C@@H](C)C3)cc2)Oc2ccc(O)cc21; 10.00
5. CC1=C(c2cccc(O)c2)C(c2ccc(OC[C@H](C)N3CCCCC3)cc2)Oc2ccc(O)cc21 (stereo partly specified); 9.70

Continue with the next compound.
# pIC50 lookup, item CC1=C(c2cccc(O)c2)C(c2ccc(OCCN3CCCC3)cc2)Oc2ccc(O)cc21 (stereo unspecified) 9.40

---

protocol summary: Half life in mouse at 3 mg/kg, iv
Type: ADME, organism-based
details: in vivo
attribute measured: half-life (h)
Give your result in h as a bare value.

1. CC1=C(c2cccc(O)c2)C(c2ccc(OC[C@H](C)N3CC[C@@H](C)C3)cc2)Oc2ccc(O)cc21 (some centres not stated); 3.6

Need half-life, item CC1=C(c2ccc(F)cc2)C(c2ccc(OC[C@H](C)N3CC[C@@H](C)C3)cc2)Oc2ccc(O)cc21 (some centres not stated) 5.2

---

protocol summary: Oral bioavailability in Sprague-Dawley rat at 2 mg/kg
Assay type: ADME, organism-based
details: in vivo
attribute measured: bioavailability (%)
Numeric only. Scale: %

1. Oc1ccc([C@H]2Sc3cc(O)ccc3O[C@H]2c2ccc(OCCN3CCCCC3)cc2)cc1; 31

Read the next record carefully.
bioavailability lookup needed for `Oc1ccc([C@H]2Sc3ccc(O)cc3O[C@H]2c2ccc(OCCN3CCCCC3)cc2)cc1` , thanks. 0

---

experimental system: Estrogen receptor (Homo sapiens, UniProt P03372)
Sequence (P03372 whole entry): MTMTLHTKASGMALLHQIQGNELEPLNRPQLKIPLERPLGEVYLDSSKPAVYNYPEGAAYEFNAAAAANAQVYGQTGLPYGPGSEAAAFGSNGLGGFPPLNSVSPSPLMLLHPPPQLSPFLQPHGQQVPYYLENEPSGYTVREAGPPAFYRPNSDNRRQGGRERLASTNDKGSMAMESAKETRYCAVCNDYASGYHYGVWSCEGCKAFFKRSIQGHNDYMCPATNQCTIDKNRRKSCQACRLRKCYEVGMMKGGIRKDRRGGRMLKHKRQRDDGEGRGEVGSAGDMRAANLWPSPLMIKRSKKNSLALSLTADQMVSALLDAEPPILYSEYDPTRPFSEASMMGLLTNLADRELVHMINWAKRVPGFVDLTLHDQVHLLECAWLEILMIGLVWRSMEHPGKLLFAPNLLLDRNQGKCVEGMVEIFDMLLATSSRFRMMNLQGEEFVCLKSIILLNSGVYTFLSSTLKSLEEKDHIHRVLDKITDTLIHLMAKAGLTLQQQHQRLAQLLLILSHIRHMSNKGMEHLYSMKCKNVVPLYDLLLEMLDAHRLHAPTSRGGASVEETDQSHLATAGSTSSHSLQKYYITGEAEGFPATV
protocol summary: Induction of ERalpha degradation in human MCF7 cells in phenol red free RPMI medium containing 5% charcoal dextran-treated FBS incubated for 4 hrs by SP1 and anti-ER rabbit monocolnal antibody based in-cell Western assay
details: mcf7
attribute measured: pIC50
// scale note: pIC50 = -log10(conc_M); give the bare number

1. CC1=C(c2cccc(O)c2)C(c2ccc(OCCN3CC(C)C3)cc2)Oc2ccc(O)cc21 (stereo not drawn); 9.52
2. CC1=C(c2ccc(C#N)cc2)C(c2ccc(OC[C@H](C)N3CC[C@@H](C)C3)cc2)Oc2ccc(O)cc21 (stereo partly drawn); 8.82

Okay, now this molecule:
Which pIC50 is reported for this molecule? CC1=C(c2ccc(F)cc2)C(c2ccc(OC[C@H](C)N3CC[C@@H](C)C3)cc2)Oc2ccc(O)cc21 (stereo partly drawn) 9.40

---

protocol summary: Volume of distribution at steady state in mouse at 3 mg/kg, iv
Type: ADME, organism-based
details: in vivo, read-out: Vdss
attribute measured: Vd

1. CC1=C(c2cccc(O)c2)C(c2ccc(OC[C@H](C)N3CC[C@@H](C)C3)cc2)Oc2ccc(O)cc21 (some centres not stated); 6.2 L/kg

For the next question, use this molecule.
Look at this molecule and give its reported Vd. CC1=C(c2ccc(F)cc2)C(c2ccc(OC[C@H](C)N3CC[C@@H](C)C3)cc2)Oc2ccc(O)cc21 (some centres not stated) 11 L/kg

---

Entries and their measured Vd follow.
protocol summary: Volume of distribution at steady state in rat at 3 mg/kg, iv
Type: ADME, organism-based
details: in vivo, read-out: Vdss
// note: answer is a bare numeric in L/kg

1) CC1=C(c2cccc(O)c2)C(c2ccc(OC[C@H](C)N3CC[C@@H](C)C3)cc2)Oc2ccc(O)cc21 (some centres not stated); 8

Which Vd is listed for CC1=C(c2ccc(F)cc2)C(c2ccc(OC[C@H](C)N3CC[C@@H](C)C3)cc2)Oc2ccc(O)cc21 (some centres not stated) ? 12

---

protocol summary: AUC in mouse at 10 mg/kg, po
Format: ADME, organism-based
details: in vivo
attribute measured: AUC
Please report the result as a number followed by the unit.

1) CC1=C(c2cccc(O)c2)C(c2ccc(OC[C@H](C)N3CC[C@@H](C)C3)cc2)Oc2cc(O)ccc21 (some centres undefined); 50 ng·h/mL
2) CC1=C(c2cccc(O)c2)C(c2ccc(OC[C@H](C)N3CC[C@@H](C)C3)cc2)Oc2ccc(O)cc21 (some centres undefined); 590 ng·h/mL
3) CC1=C(c2cccc(F)c2)C(c2ccc(OC[C@H](C)N3CC[C@@H](C)C3)cc2)Oc2ccc(O)cc21 (some centres undefined); 350 ng·h/mL

Query molecule follows.
Looking for the measured AUC of CC1=C(c2ccc(C#N)cc2)C(c2ccc(OC[C@H](C)N3CC[C@@H](C)C3)cc2)Oc2ccc(O)cc21 (some centres undefined) , can you help? 2000 ng·h/mL

---

protocol summary: AUC in human MCF7 cells xenografted nu/nu mouse implanted with 17beta-estradiol time release pellets dosed orally once daily for 4 weeks
Assay type: ADME, organism-based
details: in vivo, po
Reported AUC at 672 h values are given for each entry in this list.
Quick note: give the figure in ng·h/mL, leave out the unit.

1) CC1=C(c2ccc(F)cc2)C(c2ccc(OC[C@H](C)N3CC[C@@H](C)C3)cc2)Oc2ccc(O)cc21 (some centres not stated); 36000

In the following, a different molecule is considered.
# get_value(readout='AUC at 672 h', item= CC1=C(c2cccc(O)c2)C(c2ccc(OC[C@H](C)N3CC[C@@H](C)C3)cc2)Oc2ccc(O)cc21 (some centres not stated) ) 4600

---

# bioavailability values compiled below
protocol summary: Oral bioavailability in mouse at 10 mg/kg
Assay type: ADME, organism-based
details: in vivo

1) CC1=C(c2ccc(F)cc2)C(c2ccc(OC[C@H](C)N3CC[C@@H](C)C3)cc2)Oc2ccc(O)cc21 (some centres not stated); 35%

Kindly review the next compound as well.
Please look up its bioavailability: CC1=C(c2cccc(O)c2)C(c2ccc(OC[C@H](C)N3CC[C@@H](C)C3)cc2)Oc2ccc(O)cc21 (some centres not stated) 13%

---

experimental system: Estrogen receptor (Homo sapiens)
protocol summary: Binding affinity to ERalpha (unknown origin)
Entries and their IC50 values follow.
A number alone suffices; assume nM.

1) CC1=C(c2cccc(O)c2)[C@H](c2ccc(OC[C@H](C)N3CC[C@@H](C)C3)cc2)Oc2ccc(O)cc21; 2.8
2) CC1=C(c2cccc(O)c2)C(c2ccc(OC[C@H](C)N3CC[C@@H](C)C3)cc2)Oc2ccc(O)cc21 (stereo partly drawn); 5.1

Next molecule, IC50 to be filled in.
Sample `CC1=C(c2cccc(O)c2)[C@@H](c2ccc(OC[C@H](C)N3CC[C@@H](C)C3)cc2)Oc2ccc(O)cc21` — what was its IC50? 136
